Attribution: patent US10150747B2

Biological target: HCV NS5B genotype 1b (Con1) (Hepatitis C virus genotype 1b (isolate Con1) (HCV), UniProt Q9WMX2)
Sequence (Q9WMX2 2420-2992): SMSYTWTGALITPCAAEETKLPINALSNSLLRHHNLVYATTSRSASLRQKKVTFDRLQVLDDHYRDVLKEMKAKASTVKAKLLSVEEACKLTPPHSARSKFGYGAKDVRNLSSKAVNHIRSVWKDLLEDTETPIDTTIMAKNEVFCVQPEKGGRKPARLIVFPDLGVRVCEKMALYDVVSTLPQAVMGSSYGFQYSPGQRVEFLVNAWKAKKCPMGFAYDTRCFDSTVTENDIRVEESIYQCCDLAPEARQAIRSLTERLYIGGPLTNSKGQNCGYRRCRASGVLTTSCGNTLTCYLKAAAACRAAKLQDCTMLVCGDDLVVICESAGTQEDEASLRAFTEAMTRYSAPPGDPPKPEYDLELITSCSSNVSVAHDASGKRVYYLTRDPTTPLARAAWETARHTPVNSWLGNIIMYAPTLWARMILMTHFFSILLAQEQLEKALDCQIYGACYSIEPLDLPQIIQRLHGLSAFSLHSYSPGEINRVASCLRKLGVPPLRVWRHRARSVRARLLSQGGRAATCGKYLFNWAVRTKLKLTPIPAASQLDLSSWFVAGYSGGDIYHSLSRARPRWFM
Experiment: HCV NS5B RdRp enzyme assay (1b enzyme)
Conditions: genotype 1b NS5B enzyme
Reported IC50 values for the following compounds.
The reply should be a number in nM, with the unit left off.

[2H]C([2H])([2H])Oc1ccc(-c2cc3c(C(=O)NC)c(-c4ccc(F)cc4)oc3cc2OCC)cc1C(=O)NC(C)(C)c1ncsn1 [Example 33]    2.04
CCOc1cc2oc(-c3ccc(F)cc3)c(C(=O)NC)c2cc1-c1cnc(OC)c(C(=O)NC23CC(C2)C3)c1 [Example 15]    2.48

Next compound, please.
Recorded result, CNC(=O)c1c(-c2ccc(F)cc2)oc2cc(OCC(C)C)c(-c3ccc(OC)c(C(=O)NC(C)(C)c4ncon4)c3)cc12 [Example 26] , IC50: 30

----------
Molecular target: HCV NS5B genotype 1b (Con1) (Hepatitis C virus genotype 1b (isolate Con1) (HCV))
Assay: HCV NS5B RdRp enzyme assay (1b enzyme)
Settings: genotype 1b NS5B enzyme
Reported pIC50 values for the following compounds.
Friendly reminder that pIC50 comes from taking -log10 of the concentration in mol/L.

Recorded results for 3 compounds are shown here.
CCOc1cc2oc(-c3ccc(F)cc3)c(C(=O)NC)c2cc1-c1ccc(OC)c(C(=O)NC2(c3ncccn3)CC2)c1    8.72
CNC(=O)c1c(-c2ccc(F)cc2)oc2cc(OCC(F)(F)F)c(-c3cccc(C(=O)NC(C)(C)C#N)c3)cc12    8.52
CNC(=O)c1c(-c2ccc(F)cc2)oc2cc(OCC(F)(F)F)c(-c3cccc(C(=O)NC4(C#N)CC4)c3)cc12    8.30

Next compound, please.
Recorded result, [2H]C([2H])([2H])Oc1ccc(-c2cc3c(C(=O)NC)c(-c4ccc(F)cc4)oc3cc2OCC)cc1C(=O)NC(C)(C)C#N , pIC50: 8.69

----------
Target: HCV NS5B genotype 1b (Con1) (Hepatitis C virus genotype 1b (isolate Con1) (HCV), UniProt Q9WMX2)
Assay: HCV NS5B RdRp enzyme assay (1b enzyme)
Settings: genotype 1b NS5B enzyme
REPORTED METRIC: pIC50
Friendly reminder that pIC50 comes from taking -log10 of the concentration in mol/L.

Recorded results for 4 compounds are shown here.
CCCOc1cc2oc(-c3ccc(F)cc3)c(C(=O)NC)c2cc1-c1ccc(OC)c(C(=O)NC(C)(C)c2ncon2)c1    8.61
CCOc1cc2oc(-c3ccc(F)cc3)c(C(=O)NC)c2cc1-c1cccc(C(=O)NC23CC(C2)C3)c1    8.37
CNC(=O)c1c(-c2ccc(F)cc2)oc2cc(OCC(F)(F)F)c(-c3ccc(F)c(C(=O)NC45CC(C4)C5)c3)cc12    8.41
CNC(=O)c1c(-c2ccc(F)cc2)oc2cc(OCC(F)(F)F)c(-c3cnc(OC)c(C(=O)NC4(c5ncccn5)CC4)c3)cc12    8.53

Recorded result, CNC(=O)c1c(-c2ccc(F)cc2)oc2cc(OCC(F)(F)F)c(-c3ccc(OC)c(C(=O)NC4(c5ncccn5)CC4)c3)cc12 , pIC50: 8.38

Recorded result, CNC(=O)c1c(-c2ccc(F)cc2)oc2cc(OCC(F)(F)F)c(-c3cccc(C(=O)NC(C)(C)c4ncon4)c3)cc12 , pIC50: 8.35

Recorded result, CCOc1cc2oc(-c3ccc(F)cc3)c(C(=O)NC)c2cc1-c1cnc(OC)c(C(=O)NC2(c3ncccn3)CC2)c1 , pIC50: 8.57

Recorded result, CNC(=O)c1c(-c2ccc(F)cc2)oc2cc(OCC(F)(F)F)c(-c3cccc(C(=O)NC4(c5ncccn5)CC4)c3)cc12 , pIC50: 8.13

Recorded result, CNC(=O)c1c(-c2ccc(F)cc2)oc2cc(OCC(F)F)c(-c3cccc(C(=O)NC(C)(C)c4ncon4)c3)cc12 , pIC50: 8.38

Recorded result, CNC(=O)c1c(-c2ccc(F)cc2)oc2cc(OCCO)c(-c3ccc(OC)c(C(=O)NC(C)(C)c4ncon4)c3)cc12 , pIC50: 8.41

Recorded result, [2H]C([2H])([2H])Oc1ncc(-c2cc3c(C(=O)NC)c(-c4ccc(F)cc4)oc3cc2OCC)cc1C(=O)NC(C)(C)C#N , pIC50: 8.74

Recorded result, CCOc1cc2oc(-c3ccc(F)cc3)c(C(=O)NC)c2cc1-c1cccc(C(=O)NC2(c3ncccn3)CC2)c1 , pIC50: 8.24

Recorded result, CNC(=O)c1c(-c2ccc(F)cc2)oc2cc(OCC(F)(F)F)c(-c3ccc(F)c(C(=O)NC4(c5ncccn5)CC4)c3)cc12 , pIC50: 8.36
